Biological target: UniProt Q00987
Sequence (Q00987 1-125): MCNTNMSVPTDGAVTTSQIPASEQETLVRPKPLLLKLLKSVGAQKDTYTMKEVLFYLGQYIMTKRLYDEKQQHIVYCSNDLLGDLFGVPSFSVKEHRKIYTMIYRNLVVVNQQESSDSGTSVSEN
Assay: Competitive fluorescence polarization assay for MDM2
Format: binding
Settings: competitive FP assay, MDM2; read-out: IC50 (MDM2)
Where a SMILES comes first, the peptide text is derived from it. Bridges are numbered along the chain shown (N, C = ends). [ ]: non-standard residue; d: D form. Phe(4-COOH) = N[C@@H](Cc1ccc(C(=O)O)cc1)C(=O)O; R8 = C=CCCCCCC[C@@](C)(N)C(=O)O; Cba = N[C@@H](CC1CCC1)C(=O)O; S5 = C=CCCC[C@](C)(N)C(=O)O; Aib = CC(C)(N)C(=O)O
Property: IC50; scope: individual compounds

// solved cases for IC50 follow
[
  {
    "COMPOUND": "CCCC[C@H](NC(=O)[C@H](C)NC(=O)[C@H](C)NC(=O)[C@]1(C)CCCC=CCCCCCC[C@@](C)(NC(=O)[C@H](Cc2ccccc2)NC(=O)[C@@H](NC(=O)[C@H](CC(C)C)NC(C)=O)[C@@H](C)O)C(=O)N[C@@H](C)C(=O)N[C@@H](Cc2ccc(O)cc2)C(=O)N[C@@H](Cc2c[nH]c3ccccc23)C(=O)N[C@@H](C)C(=O)N[C@@H](CCC(N)=O)C(=O)N[C@@H](CC(C)C)C(=O)N1)C(=O)N[C@H](CC(C)C)C(N)=O (single isomer, unassigned) [compound 85]",
    "IC50": "10 to 100 nM"
  },
  {
    "COMPOUND": "CC(=O)N[C@@H](CC(C)C)C(=O)N[C@H](C(=O)N[C@@H](Cc1ccccc1)C(=O)N[C@]1(C)CCCCCCC=CCCC[C@@](C)(C(=O)N[C@@H](CO)C(=O)N[C@@H](C)C(=O)N[C@@H](C)C(N)=O)NC(=O)[C@H](CC2CCC2)NC(=O)[C@H](CCC(N)=O)NC(=O)[C@H](C)NC(=O)[C@H](Cc2c[nH]c3ccccc23)NC(=O)[C@H](Cc2ccc(C(=O)O)cc2)NC(=O)[C@H](CCC(=O)O)NC1=O)[C@@H](C)O (single isomer, unassigned) [compound 291]",
    "IC50": "10 to 100 nM"
  },
  {
    "COMPOUND": "CC(=O)N[C@@H](CC(C)C)C(=O)N[C@H](C(=O)N[C@@H](Cc1ccccc1)C(=O)N[C@]1(C)CCCCCCC=CCCC[C@@](C)(C(=O)N[C@@H](CO)C(=O)N[C@@H](C)C(=O)N[C@@H](Cc2ccccc2)C(N)=O)NC(=O)[C@H](CC2CCC2)NC(=O)[C@H](CCC(N)=O)NC(=O)[C@H](C)NC(=O)[C@H](Cc2c[nH]c3ccccc23)NC(=O)[C@H](Cc2ccc(C(=O)O)cc2)NC(=O)[C@H](C)NC1=O)[C@@H](C)O [compound 260] (Ac-LTF[R8]A[Phe(4-COOH)]WAQ[Cba][S5]SAF-NH2; staple 4-11)",
    "IC50": "10 to 100 nM"
  }
]

Data request: Return value of IC50 for input CC(=O)N[C@@H](CC(C)C)C(=O)N[C@H](C(=O)N[C@@H](Cc1ccccc1)C(=O)N[C@]1(C)CCCCCCC=CCCC[C@@](C)(C(=O)N[C@@H](CO)C(=O)N[C@@H](C)C(=O)NC(C)(C)C(N)=O)NC(=O)[C@H](CC(C)C)NC(=O)[C@H](CCC(N)=O)NC(=O)[C@H](C)NC(=O)[C@H](Cc2c[nH]c3ccccc23)NC(=O)[C@H](Cc2ccc(O)cc2)NC(=O)[C@H](C)NC1=O)[C@@H](C)O [compound 10] (Ac-LTF[R8]AYWAQL[S5]SA[Aib]-NH2; staple 4-11) , no commentary.
Data returned: 100 to 1000 nM
